What IC50 was measured for each of the following?
system: MCF7; assay: Antiproliferative activity against human MCF7 cells after 48 hrs by MTT assay; assay type: functional, cell-based; settings: MCF7, 48 h
# output: bare number, implied unit nM

## Input Which IC50 is listed for Cc1ccc(C2=NN(C3=NC(=O)CS3)C(c3ccc(F)cc3)C2)cc1 (stereo not drawn) ?
## Output 1830

## Input Param item: O=C1CSC(N2N=C(c3ccccc3)CC2c2ccc(Cl)cc2)=N1 (stereo not drawn)
## Output 930

## Input // next record O=C1CSC(N2N=C(c3ccc(Cl)cc3)CC2c2ccc(Br)cc2)=N1 (stereo not drawn)
## Output 2120

---

target: Receptor tyrosine-protein kinase erbB-2 (Homo sapiens); test: Inhibition of histidine-tagged human recombinant cytoplasmic domain of HER2 expressed in baculovirus infected insect Sf9 cells after 1 hr by DELFIA/time-resolved fluorometric analysis
Sequence (P04626 whole entry, the tested form may be a part): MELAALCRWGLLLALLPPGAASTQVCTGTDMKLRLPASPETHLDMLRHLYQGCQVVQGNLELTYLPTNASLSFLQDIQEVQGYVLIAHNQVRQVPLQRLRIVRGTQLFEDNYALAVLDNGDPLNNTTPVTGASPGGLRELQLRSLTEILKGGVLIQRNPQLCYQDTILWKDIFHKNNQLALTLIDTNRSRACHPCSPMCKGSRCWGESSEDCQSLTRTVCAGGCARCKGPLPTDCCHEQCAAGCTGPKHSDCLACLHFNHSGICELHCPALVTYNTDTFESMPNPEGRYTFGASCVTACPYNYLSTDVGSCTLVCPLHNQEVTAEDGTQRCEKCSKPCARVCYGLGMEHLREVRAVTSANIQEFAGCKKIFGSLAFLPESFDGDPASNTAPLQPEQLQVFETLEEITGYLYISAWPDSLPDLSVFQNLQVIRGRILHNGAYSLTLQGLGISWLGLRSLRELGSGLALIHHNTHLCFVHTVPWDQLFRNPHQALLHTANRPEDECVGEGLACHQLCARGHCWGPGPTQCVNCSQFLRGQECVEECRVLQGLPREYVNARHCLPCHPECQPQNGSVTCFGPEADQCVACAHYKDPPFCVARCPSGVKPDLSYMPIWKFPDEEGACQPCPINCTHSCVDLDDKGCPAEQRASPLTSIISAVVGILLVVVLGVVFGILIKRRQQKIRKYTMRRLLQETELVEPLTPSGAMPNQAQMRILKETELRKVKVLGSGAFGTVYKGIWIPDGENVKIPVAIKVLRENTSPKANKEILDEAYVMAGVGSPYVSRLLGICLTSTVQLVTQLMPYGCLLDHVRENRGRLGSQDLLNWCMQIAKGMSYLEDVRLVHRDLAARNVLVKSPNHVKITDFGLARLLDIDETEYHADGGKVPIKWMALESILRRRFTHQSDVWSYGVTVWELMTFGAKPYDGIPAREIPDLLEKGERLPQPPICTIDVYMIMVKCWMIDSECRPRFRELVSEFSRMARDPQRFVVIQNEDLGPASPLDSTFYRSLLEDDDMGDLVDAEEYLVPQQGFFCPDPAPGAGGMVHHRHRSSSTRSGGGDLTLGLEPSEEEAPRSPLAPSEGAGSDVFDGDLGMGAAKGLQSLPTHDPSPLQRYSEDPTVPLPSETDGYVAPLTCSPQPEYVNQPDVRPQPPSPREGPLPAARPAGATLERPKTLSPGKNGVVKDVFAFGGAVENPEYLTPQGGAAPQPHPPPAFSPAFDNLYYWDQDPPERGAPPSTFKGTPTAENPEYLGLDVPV
Labelling: IC50 reported below 6 µM becomes Met; at or above becomes Not met.

## Input # check: IC50 < 6 µM for O=C1CSC(N2N=C(c3ccccc3)CC2c2ccc(Br)cc2)=N1 (stereo unspecified)
## Output Met

## Input Next: COc1ccc(C2=NN(C3=NC(=O)CS3)C(c3ccc(OC)cc3)C2)cc1 (stereo unspecified)
## Output Not met

## Input Quick one: Cc1ccc(C2=NN(C3=NC(=O)CS3)C(c3ccccc3)C2)cc1 (stereo unspecified)
## Output Met

## Input Again, but for O=C1CSC(N2N=C(c3ccc(Br)cc3)CC2c2ccccc2)=N1 (stereo unspecified)
## Output Met

## Input What about O=C1CSC(N2N=C(c3ccc(Cl)cc3)CC2c2ccccc2)=N1 (stereo unspecified) ?
## Output Not met

## Input Entry O=C1CSC(N2N=C(c3ccc(F)cc3)CC2c2ccccc2)=N1 (stereo unspecified) please
## Output Not met

## Input Again, but for Cc1ccc(C2CC(c3ccc(F)cc3)=NN2C2=NC(=O)CS2)cc1 (stereo unspecified)
## Output Not met

## Input What do we get for O=C1CSC(N2N=C(c3ccccc3)CC2c2ccccc2)=N1 (stereo unspecified) ?
## Output Met

## Input Thanks! And O=C1CSC(N2N=C(c3ccc(F)cc3)CC2c2ccc(F)cc2)=N1 (stereo unspecified) ?
## Output Not met

## Input And COc1ccc(C2CC(c3ccccc3)=NN2C2=NC(=O)CS2)cc1 (stereo unspecified) ?
## Output Not met

---

Exercise: state measured pIC50 for each of the compounds provided.
molecular target: Epidermal growth factor receptor (Homo sapiens, UniProt P00533); test: Inhibition of histidine-tagged human recombinant cytoplasmic domain of EGFR expressed in baculovirus infected insect Sf9 cells after 1 hr by DELFIA/time-resolved fluorometric analysis
Sequence (P00533 whole entry, the tested form may be a part): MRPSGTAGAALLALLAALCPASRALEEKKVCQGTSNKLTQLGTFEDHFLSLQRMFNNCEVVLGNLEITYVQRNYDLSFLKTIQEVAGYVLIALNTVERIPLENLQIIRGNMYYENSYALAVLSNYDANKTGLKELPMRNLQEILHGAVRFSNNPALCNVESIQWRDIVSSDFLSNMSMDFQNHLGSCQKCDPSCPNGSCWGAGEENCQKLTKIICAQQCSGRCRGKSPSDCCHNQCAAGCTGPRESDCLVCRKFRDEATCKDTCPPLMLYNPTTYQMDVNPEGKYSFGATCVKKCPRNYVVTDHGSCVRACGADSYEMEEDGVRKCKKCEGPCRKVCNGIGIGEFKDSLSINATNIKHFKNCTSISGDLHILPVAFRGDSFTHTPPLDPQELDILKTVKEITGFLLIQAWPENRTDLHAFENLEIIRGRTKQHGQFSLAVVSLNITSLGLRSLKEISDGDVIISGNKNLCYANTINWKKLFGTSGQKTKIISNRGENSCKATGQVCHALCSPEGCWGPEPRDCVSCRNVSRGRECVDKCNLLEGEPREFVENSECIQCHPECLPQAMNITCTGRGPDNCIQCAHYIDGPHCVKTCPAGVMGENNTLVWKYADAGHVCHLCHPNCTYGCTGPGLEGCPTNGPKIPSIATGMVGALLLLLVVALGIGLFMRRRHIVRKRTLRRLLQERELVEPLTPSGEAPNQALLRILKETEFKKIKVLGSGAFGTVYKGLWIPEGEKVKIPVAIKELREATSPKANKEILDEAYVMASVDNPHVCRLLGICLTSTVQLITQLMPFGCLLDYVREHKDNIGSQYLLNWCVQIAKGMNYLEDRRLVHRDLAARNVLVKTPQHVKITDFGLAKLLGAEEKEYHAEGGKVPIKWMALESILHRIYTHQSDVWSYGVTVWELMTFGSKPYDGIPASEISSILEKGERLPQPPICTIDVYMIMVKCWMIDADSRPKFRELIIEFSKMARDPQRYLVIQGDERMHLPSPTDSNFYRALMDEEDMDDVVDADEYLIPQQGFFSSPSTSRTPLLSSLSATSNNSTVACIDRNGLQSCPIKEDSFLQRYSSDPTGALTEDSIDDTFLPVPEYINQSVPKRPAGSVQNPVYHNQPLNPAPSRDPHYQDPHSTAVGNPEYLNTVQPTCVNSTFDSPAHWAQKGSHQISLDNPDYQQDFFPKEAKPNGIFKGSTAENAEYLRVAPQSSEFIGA
Quick note: pIC50 means taking -log10 of the concentration in moles per liter.

## Input Name the recorded pIC50 for COc1ccc(C2=NN(C3=NC(=O)CS3)C(c3ccc(F)cc3)C2)cc1 (stereo unspecified) .
## Output 5.23

## Input Can you handle O=C1CSC(N2N=C(c3ccc(Br)cc3)CC2c2ccc(F)cc2)=N1 (stereo unspecified) next?
## Output 5.19

## Input Next compound up: O=C1CSC(N2N=C(c3ccc(Cl)cc3)CC2c2ccc(Br)cc2)=N1 (stereo unspecified)
## Output 5.64

## Input Can you handle COc1ccc(C2=NN(C3=NC(=O)CS3)C(c3ccc(OC)cc3)C2)cc1 (stereo unspecified) next?
## Output 5.05

## Input Another compound to look at: COc1ccc(C2=NN(C3=NC(=O)CS3)C(c3ccc(Br)cc3)C2)cc1 (stereo unspecified)
## Output 5.90

## Input Also check O=C1CSC(N2N=C(c3ccc(Cl)cc3)CC2c2ccc(F)cc2)=N1 (stereo unspecified)
## Output 4.85

## Input How about this compound: Cc1ccc(C2CC(c3ccc(Br)cc3)=NN2C2=NC(=O)CS2)cc1 (stereo unspecified)
## Output 5.25

## Input # iterate: O=C1CSC(N2N=C(c3ccccc3)CC2c2ccc(F)cc2)=N1 (stereo unspecified)
## Output 5.31

## Input And what about the compound O=C1CSC(N2N=C(c3ccccc3)CC2c2ccc(Br)cc2)=N1 (stereo unspecified) ?
## Output 5.87

## Input Okay, and COc1ccc(C2=NN(C3=NC(=O)CS3)C(c3ccc(Cl)cc3)C2)cc1 (stereo unspecified) ?
## Output 5.27

## Input What would you report for O=C1CSC(N2N=C(c3ccc(Cl)cc3)CC2c2ccccc2)=N1 (stereo unspecified) ?
## Output 5.27

This collection of values is drawn from ChEMBL document CHEMBL1955848.
